assayed system: Human PD-L1/PD-1 (Homo sapiens, UniProt Q9NZQ7)
Construct: TVMV protease cleavage site (C); made in house; host or cells: HEK293T cells
Sequence (Q9NZQ7 with tags, fused parts or gaps): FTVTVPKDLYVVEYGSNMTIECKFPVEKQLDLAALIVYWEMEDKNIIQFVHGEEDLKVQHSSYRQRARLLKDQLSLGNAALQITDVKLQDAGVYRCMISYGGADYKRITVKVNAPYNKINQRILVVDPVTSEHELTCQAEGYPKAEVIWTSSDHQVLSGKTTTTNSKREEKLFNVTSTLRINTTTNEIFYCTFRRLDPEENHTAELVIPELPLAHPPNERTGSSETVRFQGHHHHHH
method: HTRF Human PD-L1/PD-1 binding assay (PD-1-Ig/PD-L1-His)
applied conditions: PD-L1-His 10 nM, PD-1-Ig 20 nM; class symbol; read-out: HTRF Human PD-L1/PD-1 Binding Assay IC50 Range
Where a SMILES comes first, the peptide text is derived from it. Bridges are numbered along the chain shown (N, C = ends). [ ]: non-standard residue; d: D form. ξ: configuration not given here. Hyp = O=C(O)[C@@H]1C[C@@H](O)CN1; NMeNle = CCCC[C@H](NC)C(=O)O; hSer = N[C@@H](CCO)C(=O)O; NMeA = CN[C@@H](C)C(=O)O; ξC = NC(CS)C(=O)O
quantity kind: IC50

>  <molecule>
CCCC[C@H]1C(=O)N(C)[C@@H](CCCC)C(=O)NCC(=O)N[C@H](C(=O)NCC(N)=O)CSCC(=O)N[C@@H](Cc2ccc(O)cc2)C(=O)N(C)[C@@H](C)C(=O)N[C@@H](CC(N)=O)C(=O)N2CCC[C@H]2C(=O)NCC(=O)N[C@@H](CCC(N)=O)C(=O)N2C[C@H](O)C[C@H]2C(=O)N[C@@H](Cc2c[nH]c3ccccc23)C(=O)NCC(=O)N[C@@H](Cc2c[nH]c3ccccc23)C(=O)N1C [Example 5219] ({CH2CO}-Y[NMeA]NPGQ[Hyp]WGW[NMeNle][NMeNle]GCG-NH2; thioether N-14)

>  <quantity kind>
IC50

>  <result>
1 to 9.9 nM

$$$$
>  <molecule>
CCCC[C@H]1C(=O)N(C)[C@@H](CCCC)C(=O)N[C@@H](CCCNC(=N)N)C(=O)NC(C(=O)NCC(N)=O)CSCC(=O)N[C@@H](Cc2ccc(O)cc2)C(=O)N(C)[C@@H](C)C(=O)N[C@@H](CC(N)=O)C(=O)N2CCC[C@H]2C(=O)N[C@@H](CCO)C(=O)N[C@@H](CCO)C(=O)N2CCC[C@H]2C(=O)N[C@@H](Cc2c[nH]c3ccccc23)C(=O)N[C@@H](CO)C(=O)N[C@@H](Cc2c[nH]c3ccccc23)C(=O)N1C (some centres unmarked) [Example 10021] ({CH2CO}-Y[NMeA]NP[hSer][hSer]PWSW[NMeNle][NMeNle]R[ξC]G-NH2; thioether N-14)

>  <quantity kind>
IC50

>  <result>
10 to 99.9 nM

$$$$

----------
assayed system: Human PD-L1/PD-1 (Homo sapiens, UniProt Q9NZQ7)
Construct: TVMV protease cleavage site (C); made in house; host or cells: HEK293T cells
method: HTRF Human PD-L1/PD-1 binding assay (PD-1-Ig/PD-L1-His)
applied conditions: PD-L1-His 10 nM, PD-1-Ig 20 nM; class symbol; read-out: HTRF Human PD-L1/PD-1 Binding Assay IC50 Range
Where a SMILES comes first, the peptide text is derived from it. Bridges are numbered along the chain shown (N, C = ends). [ ]: non-standard residue; d: D form. ξ: configuration not given here. Hyp = O=C(O)[C@@H]1C[C@@H](O)CN1; NMehSer = CN[C@@H](CCO)C(=O)O; NMeNle = CCCC[C@H](NC)C(=O)O; hSer = N[C@@H](CCO)C(=O)O; NMeA = CN[C@@H](C)C(=O)O; ξC = NC(CS)C(=O)O
# IC50 per record follows

>  <compound>
CCCC[C@H]1C(=O)N(C)[C@@H](CCCC)C(=O)N[C@@H](CCC(=O)O)C(=O)NC(C(=O)NCC(N)=O)CSCC(=O)N[C@@H](Cc2ccc(O)cc2)C(=O)N(C)[C@@H](C)C(=O)N[C@@H](CC(N)=O)C(=O)N2CCC[C@H]2C(=O)N[C@@H](CC(N)=O)C(=O)N[C@@H](CC(C)C)C(=O)N2CCC[C@H]2C(=O)N[C@@H](Cc2c[nH]c3ccccc23)C(=O)N[C@@H](CCO)C(=O)N[C@@H](Cc2c[nH]c3ccccc23)C(=O)N1C (some centres unmarked) [Example 9184] ({CH2CO}-Y[NMeA]NPNLPW[hSer]W[NMeNle][NMeNle]E[ξC]G-NH2; thioether N-14)

>  <assayed system>
Human PD-L1/PD-1 (Homo sapiens, UniProt Q9NZQ7)

>  <IC50>
10 to 99.9 nM

$$$$
>  <compound>
CCCC[C@H]1C(=O)N[C@@H](CC(C)C)C(=O)N[C@H](C(=O)NCC(N)=O)CSCC(=O)N[C@@H](Cc2ccc(O)cc2)C(=O)N(C)[C@@H](C)C(=O)N[C@@H](CC(N)=O)C(=O)N2CCC[C@H]2C(=O)N[C@@H](Cc2c[nH]cn2)C(=O)N[C@@H](CCC(N)=O)C(=O)N2C[C@H](O)C[C@H]2C(=O)N[C@@H](Cc2c[nH]c3ccccc23)C(=O)NCC(=O)N[C@@H](Cc2c[nH]c3ccccc23)C(=O)N(C)[C@@H](CCOC)C(=O)N1C [Example 10137] ({CH2CO}-Y[NMeA]NPHQ[Hyp]WGW[NMehSer](Me)[NMeNle]LCG-NH2; thioether N-14)

>  <assayed system>
Human PD-L1/PD-1 (Homo sapiens, UniProt Q9NZQ7)

>  <IC50>
10 to 99.9 nM

$$$$

----------
assayed system: Human PD-L1/PD-1 (Homo sapiens, UniProt Q9NZQ7)
Construct: TVMV protease cleavage site (C); made in house; host or cells: HEK293T cells
method: HTRF Human PD-L1/PD-1 binding assay (PD-1-Ig/PD-L1-His)
applied conditions: PD-L1-His 10 nM, PD-1-Ig 20 nM; class symbol; read-out: HTRF Human PD-L1/PD-1 Binding Assay IC50 Range
Where a SMILES comes first, the peptide text is derived from it. Bridges are numbered along the chain shown (N, C = ends). [ ]: non-standard residue; d: D form. ξ: configuration not given here. Phe(4-F) = N[C@@H](Cc1ccc(F)cc1)C(=O)O; Bta = N[C@@H](Cc1csc2ccccc12)C(=O)O; NMeIle(3ξ) = CCC(C)[C@H](NC)C(=O)O; Hyp = O=C(O)[C@@H]1C[C@@H](O)CN1; NMeF = CN[C@@H](Cc1ccccc1)C(=O)O; NMeNle = CCCC[C@H](NC)C(=O)O; dPip = O=C(O)[C@H]1CCCCN1; NMeA = CN[C@@H](C)C(=O)O; dThz = O=C(O)[C@H]1CSCN1; Dap = NC[C@H](N)C(=O)O; ξC = NC(CS)C(=O)O; Sar = CNCC(=O)O
# IC50 per record follows

>  <compound>
CCCC[C@H]1C(=O)N(C)[C@@H](CCCC)C(=O)N[C@@H](CC(C)C)C(=O)NC(C(=O)NCC(N)=O)CSCC(=O)N[C@@H](Cc2ccc(O)cc2)C(=O)N(C)[C@@H](C)C(=O)N[C@@H](CC(N)=O)C(=O)N2CCC[C@H]2C(=O)N[C@@H](CC(N)=O)C(=O)N[C@@H](CC(C)C)C(=O)N2CCC[C@H]2C(=O)N[C@@H](Cc2csc3ccccc23)C(=O)N[C@@H](CO)C(=O)N[C@@H](Cc2c[nH]c3ccccc23)C(=O)N1C (some centres unmarked) [Example 9160] ({CH2CO}-Y[NMeA]NPNLP[Bta]SW[NMeNle][NMeNle]L[ξC]G-NH2; thioether N-14)

>  <IC50>
10 to 99.9 nM

$$$$
>  <compound>
CCCC[C@H]1C(=O)N(C)CC(=O)N[C@@H](CC(=O)O)C(=O)N[C@@H](C)C(=O)N(C)[C@@H](Cc2ccccc2)C(=O)N[C@@H](Cc2ccc(O)cc2)C(=O)N2CCC[C@@H]2C(=O)N[C@@H](Cc2c[nH]c3ccccc23)C(=O)N[C@@H](Cc2ccc(O)cc2)C(=O)N[C@@H](CC(C)C)C(=O)N[C@H](C(=O)NCC(N)=O)CSCC(=O)N[C@@H](Cc2ccccc2)C(=O)N(C)[C@@H](Cc2ccccc2)C(=O)N1C [Example 10080] ({CH2CO}-F[NMeF][NMeNle][Sar]DA[NMeF]Y[dP]WYLCG-NH2; thioether N-13)

>  <IC50>
10 to 99.9 nM

$$$$
>  <compound>
CCCC[C@H]1C(=O)N(C)[C@@H](CCCC)C(=O)N[C@@H](CN)C(=O)N[C@H](C(=O)NCC(N)=O)CSCC(=O)N[C@@H](Cc2ccc(O)cc2)C(=O)N(C)[C@@H](C)C(=O)N[C@@H](CC(=O)O)C(=O)N2CCC[C@H]2C(=O)N[C@@H](Cc2c[nH]cn2)C(=O)N[C@@H](CCC(=O)O)C(=O)N2C[C@H](O)C[C@H]2C(=O)N[C@@H](Cc2c[nH]c3ccccc23)C(=O)N[C@@H](CCN)C(=O)N[C@@H](Cc2cn(CC(=O)O)c3ccccc23)C(=O)N1C (single isomer, unassigned) [Example 5203]

>  <IC50>
1 to 9.9 nM

$$$$
>  <compound>
CCCC[C@H]1C(=O)N(C)[C@@H](CCCC)C(=O)N[C@@H](CCC(=O)O)C(=O)N[C@H](C(=O)NCC(N)=O)CSCC(=O)N[C@@H](Cc2ccc(O)cc2)C(=O)N(C)[C@@H](C)C(=O)N[C@@H](CC(=O)O)C(=O)N2CCC[C@H]2C(=O)N[C@@H](CN)C(=O)N[C@@H](CCC(=O)O)C(=O)N2C[C@H](O)C[C@H]2C(=O)N[C@@H](Cc2c[nH]c3ccccc23)C(=O)N[C@@H](CO)C(=O)N[C@@H](Cc2c[nH]c3ccccc23)C(=O)N1C [Example 5170] ({CH2CO}-Y[NMeA]DP[Dap]E[Hyp]WSW[NMeNle][NMeNle]ECG-NH2; thioether N-14)

>  <IC50>
1 to 9.9 nM

$$$$
>  <compound>
CCCC[C@H]1C(=O)N2CCC[C@@H]2C(=O)N[C@@H](CC(=O)O)C(=O)N[C@@H](C(C)C)C(=O)N(C)[C@@H](C(C)CC)C(=O)N[C@@H](CCC(N)=O)C(=O)N2CCCC[C@@H]2C(=O)N[C@@H](Cc2c[nH]c3ccccc23)C(=O)N[C@@H](Cc2ccc(O)cc2)C(=O)N[C@@H](CC(C)C)C(=O)N[C@H](C(=O)NCC(N)=O)CSCC(=O)N[C@@H](Cc2ccc(F)cc2)C(=O)N(C)[C@@H](Cc2ccccc2)C(=O)N1C (some centres unmarked) [Example 9261] ({CH2CO}-[Phe(4-F)][NMeF][NMeNle][dP]DV[NMeIle(3ξ)]Q[dPip]WYLCG-NH2; thioether N-13)

>  <IC50>
1000 to 10000 nM

$$$$
>  <compound>
CCCC[C@H]1C(=O)N(C)[C@@H](C)C(=O)N[C@@H](CCCNC(=N)N)C(=O)NC(C(=O)NCC(N)=O)CSCC(=O)N[C@@H](Cc2ccc(O)cc2)C(=O)N(C)[C@@H](C)C(=O)N[C@@H](CC(N)=O)C(=O)N2CCC[C@H]2C(=O)N[C@@H](CC(N)=O)C(=O)N[C@@H](CC(C)C)C(=O)N2C[C@H](O)C[C@H]2C(=O)N[C@@H](Cc2c[nH]c3ccccc23)C(=O)N[C@@H](CO)C(=O)N[C@@H](Cc2c[nH]c3ccccc23)C(=O)N1C (some centres unmarked) [Example 9138] ({CH2CO}-Y[NMeA]NPNL[Hyp]WSW[NMeNle][NMeA]R[ξC]G-NH2; thioether N-14)

>  <IC50>
1 to 9.9 nM

$$$$
>  <compound>
CCCC[C@H]1C(=O)N(C)[C@@H](CCCC)C(=O)N[C@@H](CCC(=O)O)C(=O)NC(C(=O)NCC(N)=O)CSCC(=O)N[C@@H](Cc2ccc(O)cc2)C(=O)N(C)[C@@H](C)C(=O)N[C@@H](CC(N)=O)C(=O)N2CCC[C@H]2C(=O)N[C@@H](Cc2c[nH]cn2)C(=O)N[C@@H](CC(N)=O)C(=O)N2CCC[C@H]2C(=O)N[C@@H](Cc2c[nH]c3ccccc23)C(=O)N[C@@H](CC(=O)O)C(=O)N[C@@H](Cc2c[nH]c3ccccc23)C(=O)N1C (some centres unmarked) [Example 9174] ({CH2CO}-Y[NMeA]NPHNPWDW[NMeNle][NMeNle]E[ξC]G-NH2; thioether N-14)

>  <IC50>
100 to 990 nM

$$$$
>  <compound>
CCCC[C@H]1C(=O)N2CSC[C@@H]2C(=O)N[C@@H](CC(N)=O)C(=O)N[C@@H](C(C)C)C(=O)N(C)[C@@H](Cc2ccccc2)C(=O)N[C@@H](Cc2ccc(O)cc2)C(=O)N2CCC[C@@H]2C(=O)N[C@@H](Cc2c[nH]c3ccccc23)C(=O)N[C@@H](Cc2ccc(O)cc2)C(=O)N[C@@H](CC(C)C)C(=O)N[C@H](C(=O)NCC(N)=O)CSCC(=O)N[C@@H](Cc2ccccc2)C(=O)N(C)[C@@H](Cc2ccccc2)C(=O)N1C [Example 10073] ({CH2CO}-F[NMeF][NMeNle][dThz]NV[NMeF]Y[dP]WYLCG-NH2; thioether N-13)

>  <IC50>
10 to 99.9 nM

$$$$

Data origin, for the record: patent US10538555B2
